TARGET_DESC: mu opiate receptor (MOR) (Rattus norvegicus, UniProt P33535)
Construct: from tissue; host or cells: striatal membrane preparation (rat striatum)
Sequence (P33535 whole entry): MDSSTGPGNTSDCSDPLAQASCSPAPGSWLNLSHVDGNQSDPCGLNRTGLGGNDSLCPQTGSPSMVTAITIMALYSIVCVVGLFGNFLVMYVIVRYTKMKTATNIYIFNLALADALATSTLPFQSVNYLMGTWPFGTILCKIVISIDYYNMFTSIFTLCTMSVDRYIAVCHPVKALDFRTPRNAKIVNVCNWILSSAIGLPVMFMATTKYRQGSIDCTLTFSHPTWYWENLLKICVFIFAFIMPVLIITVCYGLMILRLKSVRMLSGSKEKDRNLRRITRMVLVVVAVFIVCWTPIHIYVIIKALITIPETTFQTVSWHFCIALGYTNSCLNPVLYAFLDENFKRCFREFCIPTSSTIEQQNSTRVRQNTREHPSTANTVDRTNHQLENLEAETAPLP
MEASUREMENT_DESCRIPTION: MOR agonist activity, [35S]GTPγS binding assay using striatal membranes
Format: biochemical
Parameters: reference not given here
DETAILS: 0.1 μM compound, striatal membranes
OBSERVED_PROPERTY: MOR agonist activity, [35S]GTPγS binding to Gαo (%)

MOLECULE	MEASUREMENT_UNIT	RESULT_VALUE
CC(=O)c1ccc(S(=O)(=O)N2CCC3(CC2)NCCS3)cc1	%	166.5
O=C1CN(C2CCc3ccccc3C2)C2(CCN(S(=O)(=O)c3ccccc3)CC2)N1 (stereo not drawn) [C0136M(P5)]	%	176.8
CC(=O)c1ccc(S(=O)(=O)N2CCOC23CCN(C)CC3)cc1 [Compound C0093M]	%	140.0
COc1ccc(S(=O)(=O)N2CCOC23CCNCC3)cc1	%	233.2
CC(=O)N1CCSC12CCN(S(=O)(=O)c1ccc([N+](=O)[O-])cc1)CC2	%	110.3
CC(=O)c1ccc(S(=O)(=O)N2CCOC23CCNCC3)cc1	%	286.2
CCN1CCC2(CC1)OCCN2S(=O)(=O)c1ccc(C(C)=O)cc1 [Compound C0094M]	%	172.5
CC(=O)c1ccc(S(=O)(=O)N2CCOC23CCN(CC2CC2)CC3)cc1 [Compound C0095M]	%	189.1
CC(=O)c1ccc(S(=O)(=O)N2CC(CN(C)C)OC23CCNCC3)cc1 (stereo not drawn) [Compound C0118M]	%	166.2

Hello, the source for this data is patent US8614324B2, in case you need it.
